system under test: human HER3 endogenously expressed on human cancer cells (SK-Br-3, BT-474, MCF7) (human, UniProt P21860 20-1342)
method notes: cell-based or functional assay
Quick reference: MCF7 pHER3 % inhibition of the listed items.
attribute measured: MCF7 pHER3 % inhibition (%)

{"binder": "MOR13655 (antibody, human IgG1, lambda, V domains shown, Tested as IgG) VH: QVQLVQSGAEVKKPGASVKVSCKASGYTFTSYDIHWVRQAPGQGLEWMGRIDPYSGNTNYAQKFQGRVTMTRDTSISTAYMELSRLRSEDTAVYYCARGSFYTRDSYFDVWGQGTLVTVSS VL: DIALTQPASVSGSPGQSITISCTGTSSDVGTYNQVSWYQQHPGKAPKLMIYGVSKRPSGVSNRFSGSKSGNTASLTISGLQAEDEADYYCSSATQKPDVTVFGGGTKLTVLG", "attribute measured": "MCF7 pHER3 % inhibition", "unit annotation": "%", "test result": 80}
{"binder": "MOR12922 (antibody, human IgG1, lambda, V domains shown) VH: QVQLVQSGAEVKKPGASVKVSCKASGYTFTGYYMHWVRQAPGQGLEWMGVIDPYSGWTEYAQKFQGRVTMTRDTSISTAYMELSRLRSEDTAVYYCARGSFYTRDSYFDVWGQGTLVTVSS VL: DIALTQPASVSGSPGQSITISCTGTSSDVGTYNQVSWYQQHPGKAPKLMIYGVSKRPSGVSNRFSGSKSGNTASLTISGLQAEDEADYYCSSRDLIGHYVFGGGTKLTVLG", "attribute measured": "MCF7 pHER3 % inhibition", "unit annotation": "%", "test result": 62}
{"binder": "MOR13662 (antibody, human IgG1, lambda, V domains shown) VH: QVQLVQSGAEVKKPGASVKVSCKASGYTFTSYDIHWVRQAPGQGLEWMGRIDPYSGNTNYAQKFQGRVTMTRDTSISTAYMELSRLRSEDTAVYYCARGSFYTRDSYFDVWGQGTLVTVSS VL: DIALTQPASVSGSPGQSITISCTGTSSDVGTYNQVSWYQQHPGKAPKLMIYGVSKRPSGVSNRFSGSKSGNTASLTISGLQAEDEADYYCYSRAKTHWTDVFGGGTKLTVLG", "attribute measured": "MCF7 pHER3 % inhibition", "unit annotation": "%", "test result": 52}
